# selectivity ratio values compiled below
- assay-explanation: in vitro
- condition-details: human, HepG2 cells
- Description: Selectivity ratio TC50 for human HepG2 cells to EC50 for Trypanosoma brucei brucei Lister 427
recorded-metric: selectivity ratio

record-smiles	recorded-metric	measured-result
Cn1c(=O)n(-c2ccc(C(C)(C)C#N)cc2)c2c3ccccc3ncc21	selectivity ratio	> 80
N#CCc1ccc(-n2c(=O)[nH]c3cnc4ccc(-c5ccncc5)cc4c32)cc1	selectivity ratio	> 250
Cn1c(=O)n(-c2ccc(C(C)(C)C#N)cc2)c2c3cc(C#Cc4cccnc4)ccc3ncc21	selectivity ratio	17.5
COc1ccc(-n2c(=O)n(C)c3cnc4ccc(-c5ccncc5)cc4c32)cc1	selectivity ratio	67
CN(C)c1ccc(-n2c(=O)[nH]c3cnc4ccccc4c32)cc1	selectivity ratio	3
Cn1c(=O)n(-c2ccc(C(C)(C)C#N)cc2)c2c3cc(N4CCOCC4)ccc3ncc21	selectivity ratio	> 24
Cc1ccc(-n2c(=O)n(C)c3cnc4ccc(-c5ccc(C(=O)O)cc5)cc4c32)cc1	selectivity ratio	> 5
Cn1c(=O)n(C)c2c3cc(-c4ccncc4)ccc3ncc21	selectivity ratio	> 6
CN(C)c1ccc(-n2c(=O)[nH]c3cnc4ccc(-c5ccncc5)cc4c32)cc1	selectivity ratio	> 1100
Cn1c(=O)n(-c2ccc(C(C)(C)C#N)cc2)c2c3cc(N)ccc3ncc21	selectivity ratio	> 4
CN(C)c1ccc(-n2c(=O)n(C)c3cnc4ccc(-c5ccncc5)cc4c32)cc1	selectivity ratio	28
Cn1c(=O)n(-c2ccc(N3CCOCC3)cc2)c2c3cc(-c4ccncc4)ccc3ncc21	selectivity ratio	> 24
Cc1ccc(-n2c(=O)n(C)c3cnc4ccc(-c5ccncc5)cc4c32)cc1	selectivity ratio	24
Cn1c(=O)n(-c2ccc(CC#N)cc2)c2c3cc(-c4ccncc4)ccc3ncc21	selectivity ratio	> 560
CN1CCN(Cc2ccc(-n3c(=O)n(C)c4cnc5ccc(-c6ccncc6)cc5c43)cc2)CC1	selectivity ratio	> 2
Cc1ccc2ncc3c(c2c1)n(-c1ccc(C(C)(C)C#N)cc1)c(=O)n3C	selectivity ratio	> 10
Cn1c(=O)n(-c2ccc(C(C)(C)C#N)cc2)c2c3cc(-c4ccncc4)ccc3ncc21	selectivity ratio	25
CN(C)c1ccc(-n2c(=O)n(C)c3cnc4ccccc4c32)cc1	selectivity ratio	0.3
Cn1c(=O)n(-c2ccc(C(C)(C)C#N)cc2)c2c3cc(-c4cc5ccccc5s4)ccc3ncc21	selectivity ratio	> 460
Cn1c(=O)n(-c2ccc(C#N)cc2)c2c3cc(-c4cnc5ccccc5c4)ccc3ncc21	selectivity ratio	> 540
Cn1c(=O)n(-c2ccccc2)c2c3ccccc3ncc21	selectivity ratio	> 3
Cn1c(=O)n(-c2ccc(C(C)(C)C#N)cc2)c2c3cc(-c4cccnc4)ccc3ncc21	selectivity ratio	36
Cc1ccc2ncc3c(c2c1)n(-c1ccccc1)c(=O)n3C	selectivity ratio	> 39
N#Cc1ccc(-n2c(=O)[nH]c3cnc4ccc(-c5cnc6ccccc6c5)cc4c32)cc1	selectivity ratio	> 270
Cn1c(=O)n(-c2ccccc2)c2c3cc(-c4cnc5ccccc5c4)ccc3ncc21	selectivity ratio	> 1000
Cn1c(=O)n(-c2ccc(C(C)(C)C#N)cc2)c2c3cc(-c4ccc(C(F)(F)F)nc4)ccc3ncc21	selectivity ratio	> 470
Cn1c(=O)n(-c2ccc(C(F)(F)F)cc2)c2c3cc(-c4cnc5ccccc5c4)ccc3ncc21	selectivity ratio	> 240
CC(=O)Nc1ccc2ncc3c(c2c1)n(-c1ccc(C(C)(C)C#N)cc1)c(=O)n3C	selectivity ratio	> 5
Cn1c(=O)n(-c2ccc(C(C)(C)C#N)cc2)c2c3cc(-c4ccccc4)ccc3ncc21	selectivity ratio	11
